Tested system: Protein cereblon/Induced myeloid leukemia cell differentiation protein Mcl-1 (Homo sapiens, UniProt Q07820+Q96SW2)
Sequence (Q07820 whole entry, looked up, one chain of several): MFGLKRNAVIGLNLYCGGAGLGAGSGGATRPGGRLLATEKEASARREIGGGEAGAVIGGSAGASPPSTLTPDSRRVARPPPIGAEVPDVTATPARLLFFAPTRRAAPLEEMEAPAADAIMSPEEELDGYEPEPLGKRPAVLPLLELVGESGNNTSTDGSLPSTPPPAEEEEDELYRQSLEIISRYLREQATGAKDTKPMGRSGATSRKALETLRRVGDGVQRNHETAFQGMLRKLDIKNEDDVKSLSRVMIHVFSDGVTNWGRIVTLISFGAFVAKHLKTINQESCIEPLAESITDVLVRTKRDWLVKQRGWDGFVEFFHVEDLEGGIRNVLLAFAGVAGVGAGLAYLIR
Measurement protocol: Induction of CRBN-mediated Mcl-1 degradation in human HeLa cells assessed as relative abundance at 10 uM after 12 hrs by Western blot analysis (reference value: 1)
Type: cell-based
This listing pairs compounds with measured fold change (FC).
Attribute measured: fold change (FC)

{"Compound": "O=C(CCCCC(=O)NCCN1C(=O)c2cccc3c(Sc4ccc(Br)cc4)ccc(c23)C1=O)NCCCCNc1cccc2c1C(=O)N(C1CCC(=O)NC1=O)C2=O (centres undefined)", "Reported": 0.9}
{"Compound": "N#CC1=C(C#N)c2ccc(Sc3ccc(Br)cc3)c3cccc(c23)C1=O", "Reported": 1}
{"Compound": "O=C(CCCCC(=O)NCCN1C(=O)c2cccc3c(Sc4ccc(Br)cc4)ccc(c23)C1=O)NCCOCCOCCNc1cccc2c1C(=O)N(C1CCC(=O)NC1=O)C2=O (centres undefined)", "Reported": "0.9 to 1"}
{"Compound": "O=C(CCCCC(=O)NCCN1C(=O)c2cccc3c(Sc4ccc(Br)cc4)ccc(c23)C1=O)NCCCCCCNc1cccc2c1C(=O)N(C1CCC(=O)NC1=O)C2=O (centres undefined)", "Reported": "0.1 to 0.2"}
{"Compound": "N#CC1=C(NCCC(=O)NCCCCCC(=O)NCCCCCCNc2cccc3c2C(=O)N(C2CCC(=O)NC2=O)C3=O)c2ccc(Sc3ccc(Br)cc3)c3cccc(c23)C1=O (centres undefined)", "Reported": 1.5}
{"Compound": "N#CC1=C(NCCC(=O)NCCCCCCNc2cccc3c2C(=O)N(C2CCC(=O)NC2=O)C3=O)c2ccc(Sc3ccc(Br)cc3)c3cccc(c23)C1=O (centres undefined)", "Reported": 0.8}
{"Compound": "O=C(CCCCCNc1cccc2c1C(=O)N(C1CCC(=O)NC1=O)C2=O)NCCCCCCNC(=O)CCCCC(=O)NCCN1C(=O)c2cccc3c(Sc4ccc(Br)cc4)ccc(c23)C1=O (centres undefined)", "Reported": 0.9}
{"Compound": "O=C(CCCCC(=O)NCCN1C(=O)c2cccc3c(Sc4ccc(Br)cc4)ccc(c23)C1=O)NCCNc1cccc2c1C(=O)N(C1CCC(=O)NC1=O)C2=O (centres undefined)", "Reported": 1}
{"Compound": "N#CC1=C(NCCC(=O)NCCOCCOCCNc2cccc3c2C(=O)N(C2CCC(=O)NC2=O)C3=O)c2ccc(Sc3ccc(Br)cc3)c3cccc(c23)C1=O (centres undefined)", "Reported": 2.2}
{"Compound": "N#CC1=C(NCCC(=O)O)c2ccc(Sc3ccc(Br)cc3)c3cccc(c23)C1=O", "Reported": 0.6}
{"Compound": "N#CC1=C(NCCC(=O)NCCCCNc2cccc3c2C(=O)N(C2CCC(=O)NC2=O)C3=O)c2ccc(Sc3ccc(Br)cc3)c3cccc(c23)C1=O (centres undefined)", "Reported": 0.8}
{"Compound": "CC(C)(C)c1ccc(C(=O)NCCN2C(=O)c3cccc4c(Sc5ccc(Br)cc5)ccc(c34)C2=O)cc1", "Reported": 1}
{"Compound": "O=C(CCCCC(=O)NCCN1C(=O)c2cccc3c(Sc4ccc(Br)cc4)ccc(c23)C1=O)NCCCCCCCCNc1cccc2c1C(=O)N(C1CCC(=O)NC1=O)C2=O (centres undefined)", "Reported": 1}
{"Compound": "N#CC1=C(NCCC(=O)NCCNc2cccc3c2C(=O)N(C2CCC(=O)NC2=O)C3=O)c2ccc(Sc3ccc(Br)cc3)c3cccc(c23)C1=O (centres undefined)", "Reported": 1}

====

This listing pairs compounds with measured fold change (FC).
Tested system: Protein cereblon/Apoptosis regulator Bcl-2 (Homo sapiens, UniProt P10415+Q96SW2)
Sequence (P10415 whole entry, looked up): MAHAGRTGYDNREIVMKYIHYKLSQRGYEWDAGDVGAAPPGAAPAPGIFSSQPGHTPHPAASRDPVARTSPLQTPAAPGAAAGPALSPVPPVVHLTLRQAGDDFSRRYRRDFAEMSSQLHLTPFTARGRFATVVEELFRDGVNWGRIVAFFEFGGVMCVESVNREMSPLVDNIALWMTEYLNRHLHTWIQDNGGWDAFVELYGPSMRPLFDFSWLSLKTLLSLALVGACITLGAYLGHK
Sequence (Q96SW2 whole entry, looked up): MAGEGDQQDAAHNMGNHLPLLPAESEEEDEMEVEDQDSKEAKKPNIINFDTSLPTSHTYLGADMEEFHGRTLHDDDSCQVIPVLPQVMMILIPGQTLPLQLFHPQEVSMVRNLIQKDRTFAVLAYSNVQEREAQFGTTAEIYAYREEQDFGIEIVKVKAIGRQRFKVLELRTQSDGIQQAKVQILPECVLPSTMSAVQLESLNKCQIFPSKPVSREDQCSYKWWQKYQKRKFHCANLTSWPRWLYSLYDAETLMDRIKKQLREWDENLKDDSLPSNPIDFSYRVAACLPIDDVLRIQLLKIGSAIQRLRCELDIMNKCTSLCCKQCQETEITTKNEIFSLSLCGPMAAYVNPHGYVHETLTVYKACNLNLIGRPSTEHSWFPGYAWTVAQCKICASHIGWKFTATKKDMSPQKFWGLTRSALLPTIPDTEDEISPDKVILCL
Measurement protocol: Induction of CRBN-mediated Bcl-2 degradation in human HeLa cells assessed as relative abundance at 1 uM after 12 hrs by Western blot analysis (reference value: 1)
Assay type: cell-based

{"Compound": "O=C(CCCCC(=O)NCCN1C(=O)c2cccc3c(Sc4ccc(Br)cc4)ccc(c23)C1=O)NCCCCCCCCNc1cccc2c1C(=O)N(C1CCC(=O)NC1=O)C2=O (stereo not drawn)", "fold change (FC)": 0.9}
{"Compound": "O=C(CCCCC(=O)NCCN1C(=O)c2cccc3c(Sc4ccc(Br)cc4)ccc(c23)C1=O)NCCOCCOCCNc1cccc2c1C(=O)N(C1CCC(=O)NC1=O)C2=O (stereo not drawn)", "fold change (FC)": 0.9}
{"Compound": "N#CC1=C(NCCC(=O)NCCCCCCNc2cccc3c2C(=O)N(C2CCC(=O)NC2=O)C3=O)c2ccc(Sc3ccc(Br)cc3)c3cccc(c23)C1=O (stereo not drawn)", "fold change (FC)": 1}
{"Compound": "N#CC1=C(NCCC(=O)NCCCCCC(=O)NCCCCCCNc2cccc3c2C(=O)N(C2CCC(=O)NC2=O)C3=O)c2ccc(Sc3ccc(Br)cc3)c3cccc(c23)C1=O (stereo not drawn)", "fold change (FC)": 1.1}
{"Compound": "N#CC1=C(NCCC(=O)NCCNc2cccc3c2C(=O)N(C2CCC(=O)NC2=O)C3=O)c2ccc(Sc3ccc(Br)cc3)c3cccc(c23)C1=O (stereo not drawn)", "fold change (FC)": 1}
{"Compound": "N#CC1=C(NCCC(=O)NCCOCCOCCNc2cccc3c2C(=O)N(C2CCC(=O)NC2=O)C3=O)c2ccc(Sc3ccc(Br)cc3)c3cccc(c23)C1=O (stereo not drawn)", "fold change (FC)": 1}
{"Compound": "O=C(CCCCCNc1cccc2c1C(=O)N(C1CCC(=O)NC1=O)C2=O)NCCCCCCNC(=O)CCCCC(=O)NCCN1C(=O)c2cccc3c(Sc4ccc(Br)cc4)ccc(c23)C1=O (stereo not drawn)", "fold change (FC)": 1}
{"Compound": "O=C(CCCCC(=O)NCCN1C(=O)c2cccc3c(Sc4ccc(Br)cc4)ccc(c23)C1=O)NCCCCNc1cccc2c1C(=O)N(C1CCC(=O)NC1=O)C2=O (stereo not drawn)", "fold change (FC)": 1}

====

Tested system: Protein cereblon/Apoptosis regulator Bcl-2 (Homo sapiens, UniProt P10415+Q96SW2)
Measurement protocol: Induction of CRBN-mediated Bcl-2 degradation in human HeLa cells assessed as relative abundance at 10 uM after 12 hrs by Western blot analysis (reference value: 1)
Format: cell-based
This listing pairs compounds with measured fold change (FC).
Attribute measured: fold change (FC)

{"Compound": "O=C(CCCCCNc1cccc2c1C(=O)N(C1CCC(=O)NC1=O)C2=O)NCCCCCCNC(=O)CCCCC(=O)NCCN1C(=O)c2cccc3c(Sc4ccc(Br)cc4)ccc(c23)C1=O (stereo not drawn)", "Tested system": "Protein cereblon/Apoptosis regulator Bcl-2 (Homo sapiens, UniProt P10415+Q96SW2)", "Reported": 0.9}
{"Compound": "O=C(CCCCC(=O)NCCN1C(=O)c2cccc3c(Sc4ccc(Br)cc4)ccc(c23)C1=O)NCCCCCCCCNc1cccc2c1C(=O)N(C1CCC(=O)NC1=O)C2=O (stereo not drawn)", "Tested system": "Protein cereblon/Apoptosis regulator Bcl-2 (Homo sapiens, UniProt P10415+Q96SW2)", "Reported": 0.9}
{"Compound": "N#CC1=C(NCCC(=O)NCCNc2cccc3c2C(=O)N(C2CCC(=O)NC2=O)C3=O)c2ccc(Sc3ccc(Br)cc3)c3cccc(c23)C1=O (stereo not drawn)", "Tested system": "Protein cereblon/Apoptosis regulator Bcl-2 (Homo sapiens, UniProt P10415+Q96SW2)", "Reported": 1}

====

This listing pairs molecules with measured fold change (FC).
Tested system: Protein cereblon/Induced myeloid leukemia cell differentiation protein Mcl-1 (Homo sapiens, UniProt Q07820+Q96SW2)
Measurement protocol: Induction of CRBN-mediated Mcl-1 degradation in human HeLa cells assessed as relative abundance at 1 uM after 12 hrs by Western blot analysis (reference value: 1)
Assay type: cell-based
Attribute measured: fold change (FC)

{"Molecule": "N#CC1=C(NCCC(=O)NCCCCCC(=O)NCCCCCCNc2cccc3c2C(=O)N(C2CCC(=O)NC2=O)C3=O)c2ccc(Sc3ccc(Br)cc3)c3cccc(c23)C1=O (configuration not stated)", "Reported": 1.2}
{"Molecule": "N#CC1=C(NCCC(=O)NCCCCNc2cccc3c2C(=O)N(C2CCC(=O)NC2=O)C3=O)c2ccc(Sc3ccc(Br)cc3)c3cccc(c23)C1=O (configuration not stated)", "Reported": 0.9}
{"Molecule": "O=C(CCCCC(=O)NCCN1C(=O)c2cccc3c(Sc4ccc(Br)cc4)ccc(c23)C1=O)NCCCCCCNc1cccc2c1C(=O)N(C1CCC(=O)NC1=O)C2=O (configuration not stated)", "Reported": 0.3}
{"Molecule": "O=C(CCCCC(=O)NCCN1C(=O)c2cccc3c(Sc4ccc(Br)cc4)ccc(c23)C1=O)NCCNc1cccc2c1C(=O)N(C1CCC(=O)NC1=O)C2=O (configuration not stated)", "Reported": 1}
{"Molecule": "N#CC1=C(NCCC(=O)NCCNc2cccc3c2C(=O)N(C2CCC(=O)NC2=O)C3=O)c2ccc(Sc3ccc(Br)cc3)c3cccc(c23)C1=O (configuration not stated)", "Reported": 1}
{"Molecule": "N#CC1=C(NCCC(=O)NCCCCCCNc2cccc3c2C(=O)N(C2CCC(=O)NC2=O)C3=O)c2ccc(Sc3ccc(Br)cc3)c3cccc(c23)C1=O (configuration not stated)", "Reported": 0.9}
{"Molecule": "O=C(CCCCCNc1cccc2c1C(=O)N(C1CCC(=O)NC1=O)C2=O)NCCCCCCNC(=O)CCCCC(=O)NCCN1C(=O)c2cccc3c(Sc4ccc(Br)cc4)ccc(c23)C1=O (configuration not stated)", "Reported": 1}
{"Molecule": "O=C(CCCCC(=O)NCCN1C(=O)c2cccc3c(Sc4ccc(Br)cc4)ccc(c23)C1=O)NCCCCNc1cccc2c1C(=O)N(C1CCC(=O)NC1=O)C2=O (configuration not stated)", "Reported": 1}
{"Molecule": "N#CC1=C(NCCC(=O)NCCOCCOCCNc2cccc3c2C(=O)N(C2CCC(=O)NC2=O)C3=O)c2ccc(Sc3ccc(Br)cc3)c3cccc(c23)C1=O (configuration not stated)", "Reported": 1.8}
{"Molecule": "N#CC1=C(NCCC(=O)O)c2ccc(Sc3ccc(Br)cc3)c3cccc(c23)C1=O", "Reported": 1.1}
{"Molecule": "O=C(CCCCC(=O)NCCN1C(=O)c2cccc3c(Sc4ccc(Br)cc4)ccc(c23)C1=O)NCCOCCOCCNc1cccc2c1C(=O)N(C1CCC(=O)NC1=O)C2=O (configuration not stated)", "Reported": 1}
{"Molecule": "O=C(CCCCC(=O)NCCN1C(=O)c2cccc3c(Sc4ccc(Br)cc4)ccc(c23)C1=O)NCCCCCCCCNc1cccc2c1C(=O)N(C1CCC(=O)NC1=O)C2=O (configuration not stated)", "Reported": 1}
